- TGT: CYP2E1 (Homo sapiens)
- Sequence (P05181 whole entry): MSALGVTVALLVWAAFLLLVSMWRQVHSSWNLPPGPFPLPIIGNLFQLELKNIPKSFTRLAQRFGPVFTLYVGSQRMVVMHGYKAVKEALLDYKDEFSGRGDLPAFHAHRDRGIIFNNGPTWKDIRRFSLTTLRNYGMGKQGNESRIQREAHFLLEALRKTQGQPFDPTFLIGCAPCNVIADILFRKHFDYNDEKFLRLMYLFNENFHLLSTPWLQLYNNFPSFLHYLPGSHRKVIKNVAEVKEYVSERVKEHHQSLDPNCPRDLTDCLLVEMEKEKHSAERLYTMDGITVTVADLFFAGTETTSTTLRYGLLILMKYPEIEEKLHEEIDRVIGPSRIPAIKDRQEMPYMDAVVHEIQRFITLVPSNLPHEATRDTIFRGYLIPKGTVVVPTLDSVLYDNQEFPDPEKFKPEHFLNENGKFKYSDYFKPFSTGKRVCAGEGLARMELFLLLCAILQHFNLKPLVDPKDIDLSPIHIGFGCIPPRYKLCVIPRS
RECORDED_ENDPOINT: IC50

INSERT INTO results (compound, test_value) VALUES
  ('C=Cc1ccccc1 [styrene]', '22 µM');

* * *

- TGT: CYP2E1 (Homo sapiens)
- ASSAY_PROCEDURE: in vitro
- MEASUREMENT_PARAMETERS: recombinant enzyme, pH 7.4
RECORDED_ENDPOINT: activity (%)

INSERT INTO results (compound, recorded_endpoint, unit_of_measure, test_value) VALUES
  ('C=Cc1ccccc1 [styrene]', 'activity', '%', 19);
